Entries and their measured % elongation follow.
# assay_system: Genome polyprotein (Poliovirus type 1 (strain Mahoney))
# assay_overview: poliovirus RdRp elongation inhibitors, primary screen, biochemical, fluorescence polarization, total intensity (AID 588519)
# test_context: poliovirus polymerase elongation, stronger effect = lower value, compound at 16.7 µg/mL
Out of some 150,000 compounds screened, about 1,000 (0.67%) were called active. Shown is part of a subset that was picked to be rich in actives.

Solved cases (8 shown):
• O=C(CSc1nnc(-c2c[nH]c3ccccc23)o1)NCC1CN(Cc2ccccc2)CCO1 (stereo unspecified) = 105% (inactive)
• CCOc1ccccc1N(CC)C(=O)Nc1cn(C)c(=O)c2ccccc12 = 103% (inactive)
• Cc1ccc(NC2=C/C(=N/S(=O)(=O)c3ccc(F)cc3)c3ccccc3C2=O)cc1C = 102% (inactive)
• CCC(=O)Nc1ccc(C(=O)n2nnc3ccccc32)cc1 = 104% (inactive)
• CCOC(=O)c1sc(NC(=O)/C=C/c2ccc(C(C)C)cc2)c(C(=O)OCC)c1C = 105% (inactive)
• CS(=O)(=O)Nc1ccc2c(c1)COC2=O = 102% (inactive)
• COc1ccc(-c2csc(=Nc3ccccc3)n2C)cc1 = 105% (inactive)
• O=C(O)c1ccc2nc[nH]c2c1 = 100% (inactive)

Record CCOc1ccccc1NC(=O)Cn1c2ncccc2c(=O)n1-c1ccc(C)c(C)c1 , field % elongation: 107% (inactive)

Record CN1CCc2c(c(S)[nH]c(=S)c2C#N)C1 , field % elongation: -17% (active)

Record CCN(C(=O)CN1CCCCC1)c1nc2ccc(C)cc2s1 , field % elongation: 102% (inactive)

----------
# assay_system: Genome polyprotein (Poliovirus type 1 (strain Mahoney)) (UniProt P03300)
# Sequence (P03300 1749-2209 limits assumed): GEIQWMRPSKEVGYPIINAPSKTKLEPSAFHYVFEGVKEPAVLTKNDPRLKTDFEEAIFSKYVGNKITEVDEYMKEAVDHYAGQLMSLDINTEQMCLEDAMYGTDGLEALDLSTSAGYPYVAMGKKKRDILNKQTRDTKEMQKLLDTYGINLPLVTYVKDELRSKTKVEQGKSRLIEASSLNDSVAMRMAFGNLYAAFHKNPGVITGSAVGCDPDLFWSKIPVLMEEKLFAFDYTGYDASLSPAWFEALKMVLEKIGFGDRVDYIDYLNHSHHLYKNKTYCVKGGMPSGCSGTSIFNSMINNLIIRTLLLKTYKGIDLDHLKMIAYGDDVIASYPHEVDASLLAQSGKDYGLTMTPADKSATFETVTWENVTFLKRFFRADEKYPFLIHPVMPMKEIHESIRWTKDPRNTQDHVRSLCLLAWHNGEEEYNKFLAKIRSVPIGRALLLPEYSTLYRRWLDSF
# assay_overview: poliovirus RdRp elongation inhibitors, primary screen, biochemical, fluorescence polarization, total intensity (AID 588519)
# test_context: poliovirus polymerase elongation, stronger effect = lower value, compound at 16.7 µg/mL
Screen size: about 150,000 compounds; about 1,000 (0.67%) were called active. For the sample, actives were picked, then their nearest neighbours and some compounds at random.
attribute_measured: % elongation (%)
Entry rule: numbers only, all in %.

* Fc1ccc(NC(=S)N2CCN=C2Nc2ccc(F)cc2)cc1 | 87
* Cc1nc(N(CC(=O)OC2CC(C)CCC2C(C)C)S(=O)(=O)c2ccc(N)cc2)c(C)n1N (configuration not stated) | 102
* OC1CCN(C(=S)Nc2ccccc2)CC1 | 101
* C=C(C)CNC(=S)NN | 83
* COc1ccccc1NC(=O)Nc1cc(C(C)(C)C)nn1-c1ccccc1 | 105

Record O=C(COC(=O)c1cc(=O)[nH]c2ccccc12)NCc1ccco1 , field % elongation: 107

Record COc1ccc(NC(=S)N2CCCCC2)cc1 , field % elongation: 100

Record Cc1cc(C)c(C(=O)COC(=O)c2ccc(N(C)C)cc2)c(C)c1 , field % elongation: 104

Record COC(=O)c1cc(-c2cccs2)nc2ccccc12 , field % elongation: 101

Record CCOC(=O)C(C(=O)c1ccccc1)C1(O)C(=O)c2ccccc2C1=O (configuration not stated) , field % elongation: 46

Record Cc1cc(N2CCNCC2)nc(C)n1 , field % elongation: 102

Record C=CCSc1nnc(NC(=O)CCNS(=O)(=O)c2ccccc2)s1 , field % elongation: 103

----------
Entries and their measured % elongation follow.
# assay_system: Genome polyprotein (Poliovirus type 1 (strain Mahoney)) (UniProt P03300)
# assay_overview: poliovirus RdRp elongation inhibitors, primary screen, biochemical, fluorescence polarization, total intensity (AID 588519)
# test_context: poliovirus polymerase elongation, measured here: total intensity read-out, stronger effect = lower value, compound at 16.7 µg/mL
The whole screen tested about 150,000 compounds, of which about 1,000 (0.67%) were called active. The list comes from a sample in which actives are over-represented; it also holds close analogues and randomly drawn compounds.
Entry rule: numbers only, all in %.

- Cc1ccc(NC2=C/C(=N/S(=O)(=O)c3ccc(F)cc3)c3ccccc3C2=O)cc1C: 106
- O=C1Cc2ccccc2C(=O)N1Cc1ccccn1: 83
- Cc1cc(NC(=O)c2ccccc2C)no1: 103
- O=C(NN=c1c(=O)c2ccccc2c1=O)c1ccncc1: 54

Okay, now this compound:
Record CC(C)CCSc1nc2ncn(C)c2c(=O)[nH]1 , field % elongation: 108

----------
# assay_system: Genome polyprotein (Poliovirus type 1 (strain Mahoney)) (UniProt P03300)
# assay_overview: poliovirus RdRp elongation inhibitors, primary screen, biochemical, fluorescence polarization, total intensity (AID 588519)
# test_context: poliovirus polymerase elongation, measured here: FP z-score, stronger effect = lower value
Out of some 150,000 compounds screened, about 1,000 (0.67%) were called active. The sample holds actives, similar compounds and a random draw of the others, so the mix is not that of the screen.
Could you please mark TRUE for values of z-score below -1 and FALSE for values at or above it?

Solved entries:
• O=C(CNc1ccccc1N1CCCCC1)N1CCc2ccccc21 = FALSE
• COC(=O)c1ccccc1NC(=O)C1CC(c2cccc(Br)c2)=NO1 (configuration not stated) = FALSE
• Cc1cc(C)c2nc(-c3ccco3)cc(C(=O)O)c2c1 = TRUE
• CN(C)c1ccc(/C=C(\C#N)NC(=O)c2ccccc2)cc1 = FALSE

Ask: State whether -1 exceeds z-score recorded for CCc1nc(NCc2ccccc2)c(C#N)c2c1COC(C)(C)C2 .
Reply: FALSE

Ask: State whether -1 exceeds z-score recorded for Cc1cc(C(=O)COC(=O)c2ccc(S(=O)(=O)NCc3ccco3)cc2)c(C)n1C .
Reply: FALSE

Ask: State whether -1 exceeds z-score recorded for CCN1CCN(C2=Nc3c(Cl)cc(Cl)c4cccc2c34)CC1 .
Reply: TRUE

Ask: State whether -1 exceeds z-score recorded for Cc1cccc(-n2c(Cn3ccc(C)n3)n[nH]c2=S)c1 .
Reply: FALSE

Ask: State whether -1 exceeds z-score recorded for CCC1CN2CCC34c5ccccc5NC3C(C)C1CC24 (configuration not stated) .
Reply: FALSE

Ask: State whether -1 exceeds z-score recorded for NC(=O)c1cccc(N2C(=O)c3ccccc3C2=O)c1 .
Reply: FALSE

Ask: State whether -1 exceeds z-score recorded for O=C1Nc2ccccc2C1=Nc1cccc(C(F)(F)F)c1 .
Reply: TRUE

Ask: State whether -1 exceeds z-score recorded for CCCCC(=O)Nc1sc2c(c1C#N)CCCC2 .
Reply: TRUE

----------
# assay_system: Genome polyprotein (Poliovirus type 1 (strain Mahoney)) (UniProt P03300)
# assay_overview: poliovirus RdRp elongation inhibitors, primary screen, biochemical, fluorescence polarization, total intensity (AID 588519)
# test_context: poliovirus polymerase elongation, compound at 16.7 µg/mL
In all, about 150,000 compounds went through this assay and about 1,000 (0.67%) were called active. Cut-off read from the data, not from the text of the source: active = % elongation below about 90%; inactive = the rest, inconclusive results apart. The full list was thinned out, with actives kept by preference.
Response enum: active, inactive

Solved entries:
- CCn1c2ccccc2c2cc(CN3CCN(Cc4cccc(Cl)c4)CC3)ccc21: inactive
- NC(=O)c1cccc(N2C(=O)c3ccccc3C2=O)c1: inactive
- CC(C)OC(=O)Nc1ccccc1: inactive
- CCn1c(SCc2cc(=O)oc3cc(NC(C)=O)ccc23)nnc1-c1ccccc1: inactive
- CC(=O)Nc1c(C)ccc(NC(=O)C2C(C=C(C)C)C2(C)C)c1C (configuration not stated): inactive
- COc1ccccc1CNCc1ccc(C(=O)O)s1: inactive
- NC(=O)C1CCN(C(=S)Nc2ccccc2)CC1: inactive
- O=C(NNc1ncnc2ccccc12)c1ccncc1: inactive

Ask: Look up the recorded call for Cc1nnc2ccc(-c3ccc(NS(=O)(=O)c4ccc5c(c4)OCCO5)cc3)nn12 in this test.
Reply: inactive

Ask: Look up the recorded call for CCSc1nsc(SCC)c1C(=O)O in this test.
Reply: active

Ask: Look up the recorded call for CCC(Cc1ccccc1)NC(=O)c1ccco1 (configuration not stated) in this test.
Reply: inactive

Ask: Look up the recorded call for O=C(NN=c1c(=O)c2ccccc2c1=O)c1ccncc1 in this test.
Reply: active

----------
# assay_system: Genome polyprotein (Poliovirus type 1 (strain Mahoney))
# assay_overview: poliovirus RdRp elongation inhibitors, primary screen, biochemical, fluorescence polarization, total intensity (AID 588519)
# test_context: poliovirus polymerase elongation, measured here: FP z-score, stronger effect = lower value
In all, about 150,000 compounds went through this assay and about 1,000 (0.67%) were called active. The sample holds actives, similar compounds and a random draw of the others, so the mix is not that of the screen.
Could you please mark T for values of z-score below -0.2 and F for values at or above it?

• Cc1ccc(-n2c(=O)c3cccnc3n2CC(=O)Nc2ccccc2C(F)(F)F)cc1C = F
• Cc1cc(C)c(C(=O)COC(=O)c2ccc(N(C)C)cc2)c(C)c1 = T
• CCN(CC)S(=O)(=O)c1cc(C(=O)N2CCN(Cc3ccc4c(c3)OCO4)CC2)ccc1Cl = F

Moving on to another compound below.
Ask: State whether -0.2 exceeds z-score recorded for O=C(CSc1ccc(Br)cc1)c1ccco1 .
Reply: T

All figures here come from PubChem BioAssay AID588519.
